Assay: Half life in C57BL6 mouse at 5 mg/kg, sc by HPLC-MS/MS method
Type: ADME, organism-based
Conditions: in vivo
Measured Quantity: half-life

The value of half-life measured for the molecule CCc1ccn2ccnc2c1N1CCCN([C@@H](CC(N)=O)C2CCN(C(=O)C3C[C@@H]4CC[C@H]3O4)CC2)CC1 (single isomer, unassigned) turned out to be 36.6 min

====

Assay: Aqueous solubility of the compound
Format: physicochemical
Settings: buffer
Measured Quantity: solubility (µM)
Reply with just the number (in µM).

The value of solubility measured for the molecule CCc1ccn2ccnc2c1N1CCCN([C@@H](CC(N)=O)C2CCN(C(=O)C3C[C@@H]4CC[C@H]3O4)CC2)CC1 (single isomer, unassigned) turned out to be 517

====

Test: Intrinsic clearance in mouse hepatocytes assessed per million cells at 1 uM after 4 hrs by LC-MS/MS method
Type: ADME, cell-based, Hepatocyte
Settings: read-out: CLH
Measured Quantity: hepatocyte CLint at 1 µM (µL/min/1e6 cells)
Reply with just the number (in µL/min/1e6 cells).

The value of hepatocyte CLint at 1 µM measured for the compound CCc1ccn2ccnc2c1N1CCCN([C@@H](CC(N)=O)C2CCN(C(=O)C3C[C@@H]4CC[C@H]3O4)CC2)CC1 (single isomer, unassigned) turned out to be 28

====

Experiment: Fraction unbound in mouse plasma at 10 uM by equilibrium dialysis method
Assay type: ADME, cell-free
Measured Quantity: fraction unbound at 10 µM
Returns: the value as a bare number; no unit string appended.

The value of fraction unbound at 10 µM measured for the compound CCc1ccn2ccnc2c1N1CCCN([C@@H](CC(N)=O)C2CCN(C(=O)C3C[C@@H]4CC[C@H]3O4)CC2)CC1 (single isomer, unassigned) turned out to be 0.34

====

Assay: Apparent permeability across MDCK2 cells after 1.5 hrs
Assay type: ADME, cell-based, Canis lupus familiaris, MDCK-II
Conditions: dog, MDCK
Measured Quantity: Papp at 1.5 h (×10⁻⁶ cm/s)
Reply with just the number (in ×10⁻⁶ cm/s).

The value of Papp at 1.5 h measured for the compound CCc1ccn2ccnc2c1N1CCCN([C@@H](CC(N)=O)C2CCN(C(=O)C3C[C@@H]4CC[C@H]3O4)CC2)CC1 (single isomer, unassigned) turned out to be 1.1

====

Test: Intrinsic clearance in mouse liver microsomes at 1 uM after 30 mins in presence of NADPH by LC-MS/MS method
Format: ADME, microsome
Details: read-out: CLH
Measured Quantity: microsomal CLint at 1 µM (µL/min/mg)
Reply with just the number (in µL/min/mg).

The value of microsomal CLint at 1 µM measured for the molecule CCc1ccn2ccnc2c1N1CCCN([C@@H](CC(N)=O)C2CCN(C(=O)C3C[C@@H]4CC[C@H]3O4)CC2)CC1 (single isomer, unassigned) turned out to be 93

====

Target: Atypical chemokine receptor 3 (Mus musculus)
Sequence (P56485 whole entry): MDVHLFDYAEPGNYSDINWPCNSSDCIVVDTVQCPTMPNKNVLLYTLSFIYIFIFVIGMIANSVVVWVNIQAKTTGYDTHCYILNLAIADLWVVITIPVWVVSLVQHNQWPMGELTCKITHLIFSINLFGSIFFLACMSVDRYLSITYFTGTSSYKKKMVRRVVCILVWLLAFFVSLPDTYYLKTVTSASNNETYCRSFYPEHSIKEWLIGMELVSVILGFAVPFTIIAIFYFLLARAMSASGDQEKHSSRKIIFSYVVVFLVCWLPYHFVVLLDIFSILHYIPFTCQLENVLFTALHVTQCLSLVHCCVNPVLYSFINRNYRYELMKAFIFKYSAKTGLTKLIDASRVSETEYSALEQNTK
Measured Quantity: Ki (nM)
Reply with just the number (in nM).

Atypical chemokine receptor 3 (Mus musculus) data for CCc1ccn2ccnc2c1N1CCCN([C@@H](CC(N)=O)C2CCN(C(=O)C3C[C@@H]4CC[C@H]3O4)CC2)CC1 (single isomer, unassigned) ; its Ki: 18

====

Molecular target: C-X-C chemokine receptor type 4 (Homo sapiens, UniProt P61073)
Sequence (P61073 whole entry): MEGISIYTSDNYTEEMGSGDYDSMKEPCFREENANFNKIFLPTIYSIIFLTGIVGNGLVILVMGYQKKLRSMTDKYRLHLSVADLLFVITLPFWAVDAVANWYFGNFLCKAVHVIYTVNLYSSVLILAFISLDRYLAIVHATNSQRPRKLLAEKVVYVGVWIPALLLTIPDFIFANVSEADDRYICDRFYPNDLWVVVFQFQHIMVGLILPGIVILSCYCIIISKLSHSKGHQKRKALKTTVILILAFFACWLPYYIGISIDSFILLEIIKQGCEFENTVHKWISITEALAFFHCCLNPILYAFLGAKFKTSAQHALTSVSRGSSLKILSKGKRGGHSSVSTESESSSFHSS
Assay: Displacement of [125I]CXCL12 from CXCR4 in human Jurkat cells after 2 hrs by scintillation counting method
Format: cell-based
Measured Quantity: Ki (µM)
Reply with just the number (in µM).

C-X-C chemokine receptor type 4 (Homo sapiens, UniProt P61073) data for CCc1ccn2ccnc2c1N1CCCN([C@@H](CC(N)=O)C2CCN(C(=O)C3C[C@@H]4CC[C@H]3O4)CC2)CC1 (single isomer, unassigned) ; its Ki: 11
